TEST_DETAILS: in vitro
EXPERIMENTAL_PARAMETERS: human, Jurkat cells
Ends that are not written are not given here.
MEASURED_QUANTITY: viability at 1.5 h, 1 µM (%)
Number in %, nothing else.

# sequence LLKLWSRLLKLWTQGGSGGGSGRRLKAKRAKA [FSD18] ; its viability at 1.5 h, 1 µM = 98.6

###

TEST_DETAILS: in vitro
EXPERIMENTAL_PARAMETERS: human, DOHH2 cells
Ends that are not written are not given here.
MEASURED_QUANTITY: viability at 0.5 h, 2 µM (%)
Number in %, nothing else.

# sequence LLKLWSRLLKLWTQGGSGGGSGRRLKAKRAKA [FSD18] ; its viability at 0.5 h, 2 µM = 79.8
